// provenance: paper PMC9482650

- target.entity: Inadl_2, Q8NI35
- Sequence (Q8NI35 238-335): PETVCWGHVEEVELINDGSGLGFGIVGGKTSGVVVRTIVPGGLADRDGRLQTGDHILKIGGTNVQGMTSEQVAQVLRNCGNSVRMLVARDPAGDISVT
- assay.method.text: holdup assay
- Design: key: below the threshold = too weak to quantify, mostly under pKd 3.1 to 4
- experimental.context: plain residues with an end cap or a label only (N-terminal biotin on a linker: ahx)
property.label: pKd

Guide cases for pKd, answers given:
Req: // lookup pKd for NRKREIFSNF [NHERF2, Q15599]
Resp: below the threshold

Req: Then what about the binder SDSSGQEYSL [KCTD3, Q9Y597] ?
Resp: below the threshold

Req: Then what about the binder GYDWGPATDL [TJP3, O95049] ?
Resp: below the threshold

Req: Then what about the binder LSDPSVSTVV [GRIN1, Q05586;Q05586-2] ?
Resp: below the threshold

Req: Then what about the binder TVICWPGSLV [LNX2, Q8N448] ?
Resp: below the threshold

Req: Then what about the binder PSASCAVTAA [PDLIM4, P50479;P50479-2] ?
Resp: below the threshold

Req: Then what about the binder ESLLLGPSNF [SHROOM4, Q9ULL8] ?
Resp: below the threshold

Req: Then what about the binder RRRKRKRTYL [HPV49-L2, P36762] ?
Resp: below the threshold

Req: Then what about the binder HNAFLSVTTV [PDZRN4, Q6ZMN7] ?
Resp: below the threshold

Switching to the query record.
Req: // lookup pKd for RAVEEEESRF [PSCDBP, O60759]
Resp: below the threshold
